# target.entity: PGT128
# Sequence (VH, as listed by the source, chain 1 of 2): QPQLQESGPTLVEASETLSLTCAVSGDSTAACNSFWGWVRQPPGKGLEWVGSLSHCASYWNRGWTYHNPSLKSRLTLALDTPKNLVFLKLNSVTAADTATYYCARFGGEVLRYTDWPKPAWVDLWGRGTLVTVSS
# Sequence (VL, as listed by the source, chain 2 of 2): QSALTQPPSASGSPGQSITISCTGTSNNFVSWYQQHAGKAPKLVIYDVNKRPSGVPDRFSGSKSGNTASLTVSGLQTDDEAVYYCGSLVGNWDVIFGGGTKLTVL
# assay.remarks: BLI
Bridge positions count the residues as written; N and C are the ends. Square brackets hold non-standard residues; d marks the D form. Primed or numbered codes have the meaning given here. Ends that are not written are not given here. * marks the point of attachment. Man9GlcNAc2 = CC(=O)N[C@@H]1[C@@H](O)[C@H](O[C@@H]2O[C@H](CO)[C@@H](O[C@@H]3O[C@H](CO[C@H]4O[C@H](CO[C@H]5O[C@H](CO)[C@@H](O)[C@H](O)[C@@H]5O[C@H]5O[C@H](CO)[C@@H](O)[C@H](O)[C@@H]5O)[C@@H](O)[C@H](O[C@H]5O[C@H](CO)[C@@H](O)[C@H](O)[C@@H]5O[C@H]5O[C@H](CO)[C@@H](O)[C@H](O)[C@@H]5O)[C@@H]4O)[C@@H](O)[C@H](O[C@H]4O[C@H](CO)[C@@H](O)[C@H](O)[C@@H]4O[C@H]4O[C@H](CO)[C@@H](O)[C@H](O)[C@@H]4O[C@H]4O[C@H](CO)[C@@H](O)[C@H](O)[C@@H]4O)[C@@H]3O)[C@H](O)[C@H]2NC(C)=O)[C@@H](CO)O[C@H]1*; Hpra′ = its azide, alkyne or alkene has reacted where a group follows in round brackets
quantity.name: log10(koff) (log10 of the value in s⁻¹)
Recorded koff (log10, s⁻¹)

binder="YTEKHNGIGDIRPAIC(iodoacetamide)[Hpra′](Man9GlcNAc2)NSKNQNHRC(iodoacetamide)NHYQIKLYIH[Hpra′](Man9GlcNAc2)L[Hpra′](Man9GlcNAc2)RLPHNYRNS (not fully specified (C-terminus); also: Man9GlcNAc2 attached by CuAAC, biotin on the C-terminal lysine (no K at C-terminus of given chain)) [acyclic H1 variant (peptide 7)]" quantity_name=log10(koff) test_result=-2.21
binder="YTEKHNGIGDIRPAIC[Hpra′](Man9GlcNAc2)NSKNQNHRCNHYQIKLYIH[Hpra′](Man9GlcNAc2)L[Hpra′](Man9GlcNAc2)RLPHNYRNS (linker 16-26 via m‑dibromoxylene (inferred); not fully specified (C-terminus); also: Man9GlcNAc2 attached by CuAAC, biotin on the C-terminal lysine (no K at C-terminus of given chain)) [H1 glycopeptide (peptide 1)]" quantity_name=log10(koff) test_result=-4.20
binder="LFKPYPKIGDIRKARC[Hpra′](Man9GlcNAc2)LQHTLHHRTNKQPSYRRRLKTLIPLFRRC[Hpra′](Man9GlcNAc2)L (not fully specified (C-terminus); cysteine pairing not given here; also: Man9GlcNAc2 attached by CuAAC, biotin on the C-terminal lysine (no K at C-terminus of given chain)) [H22 glycopeptide (peptide 2)]" quantity_name=log10(koff) test_result=-2.20
binder="SIKLINQ[Hpra′](Man9GlcNAc2)[Hpra′](Man9GlcNAc2)TTNPHLRLHIGDIRRLIKDLY[Hpra′](Man9GlcNAc2)FRVYYRPTNSGRRLFVN (not fully specified (C-terminus); also: Man9GlcNAc2 attached by CuAAC, biotin on the C-terminal lysine (no K at C-terminus of given chain)) [L1 glycopeptide (peptide 8)]" quantity_name=log10(koff) test_result=-3.19

-- ask Reported log10(koff), binder YTEKHNGIAAIAPAIC[Hpra′](Man9GlcNAc2)NSKNQNHRCNHYQIKLYIH[Hpra′](Man9GlcNAc2)L[Hpra′](Man9GlcNAc2)RLPHNYRNS (not fully specified (C-terminus); cysteine pairing not given here; also: Man9GlcNAc2 attached by CuAAC, biotin on the C-terminal lysine (no K at C-terminus of given chain)) [H1 mutant with IGDIR changed to IAAIA (peptide 5)] : ____
-- reply -2.67
